Tested on: Streptococcus pneumoniae
assayProcedure: Antibacterial activity against erythromycin-resistant Streptococcus pneumoniae A22072 harboring mef gene after 24 h by NCCLS broth microdilution method
Format: functional
measurementContext: A22072, 24 h
readoutLabel: MIC (µg/mL)
Express your answer in µg/mL, writing the number without its unit.

MIC for CC[C@H]1OC(=O)[C@H](C)C(=O)[C@H](C)[C@@H](O[C@@H]2O[C@H](C)C[C@H](N(C)C)[C@H]2O)[C@](C)(OC)C[C@@H](C)C(=O)[C@H](C)[C@@H](OC(=O)NCCNC(=O)c2ccc(F)cc2)[C@]1(C)O ?
2

Look at this compound and give its reported MIC. CC[C@H]1OC(=O)[C@H](C)[C@@H](O[C@H]2C[C@@](C)(OC)[C@@H](O)[C@H](C)O2)[C@H](C)[C@@H](O[C@@H]2O[C@H](C)C[C@H](N(C)C)[C@H]2O)[C@](C)(OC)C[C@@H](C)C(=O)[C@H](C)[C@@H](O)[C@]1(C)O
4

Could you share which MIC value was measured for CC[C@H]1OC(=O)[C@H](C)C(=O)[C@H](C)[C@@H](O[C@@H]2O[C@H](C)C[C@H](N(C)C)[C@H]2O)[C@](C)(OC)C[C@@H](C)C(=O)[C@H](C)[C@@H](OC(=O)NCCNC(=O)/C=C/c2ccc(O)cc2)[C@]1(C)O ?
4

Need MIC of CC[C@H]1OC(=O)[C@H](C)C(=O)[C@H](C)[C@@H](O[C@@H]2O[C@H](C)C[C@H](N(C)C)[C@H]2O)[C@](C)(OC)C[C@@H](C)C(=O)[C@H](C)[C@@H](OC(=O)NCCNC(=O)c2ccccc2)[C@]1(C)O , thanks.
4

Entry under review: CC[C@H]1OC(=O)[C@H](C)C(=O)[C@H](C)[C@@H](O[C@@H]2O[C@H](C)C[C@H](N(C)C)[C@H]2O)[C@](C)(OC)C[C@@H](C)C(=O)[C@H](C)[C@@H](OC(=O)NCCNC(=O)/C=C/c2ccco2)[C@]1(C)O . Reported MIC?
1

# input compound: CC[C@H]1OC(=O)[C@H](C)C(=O)[C@H](C)[C@@H](O[C@@H]2O[C@H](C)C[C@H](N(C)C)[C@H]2O)[C@](C)(OC)C[C@@H](C)C(=O)[C@H](C)[C@@H](OC(=O)NCCNC(=O)c2ccc(Cl)cc2)[C@]1(C)O ; wanted: its MIC
0.5

* * *

System: Staphylococcus aureus
assayProcedure: Antibacterial activity against erythromycin-susceptible Staphylococcus aureus ATCC 25923 after 24 h by NCCLS broth microdilution method
Format: functional
measurementContext: ATCC 25923, 24 h
readoutLabel: MIC (µg/mL)
// units = µg/mL; emit number, no label

The following molecules have reported results that may help.
CC[C@H]1OC(=O)[C@H](C)C(=O)[C@H](C)[C@@H](O[C@@H]2O[C@H](C)C[C@H](N(C)C)[C@H]2O)[C@](C)(OC)C[C@@H](C)C(=O)[C@H](C)[C@@H](OC(=O)NCCNC(=O)/C=C/c2ccc(C)cc2)[C@]1(C)O    64
CC[C@H]1OC(=O)[C@H](C)C(=O)[C@H](C)[C@@H](O[C@@H]2O[C@H](C)C[C@H](N(C)C)[C@H]2O)[C@](C)(OC)C[C@@H](C)C(=O)[C@H](C)[C@@H](OC(=O)NCCNC(=O)/C=C/c2ccc(Cl)cc2)[C@]1(C)O    16
CC[C@H]1OC(=O)[C@H](C)C(=O)[C@H](C)[C@@H](O[C@@H]2O[C@H](C)C[C@H](N(C)C)[C@H]2O)[C@](C)(OC)C[C@@H](C)C(=O)[C@H](C)[C@@H](OC(=O)NCCNC(=O)/C=C/c2ccc([N+](=O)[O-])cc2)[C@]1(C)O    32
CC[C@H]1OC(=O)[C@H](C)C(=O)[C@H](C)[C@@H](O[C@@H]2O[C@H](C)C[C@H](N(C)C)[C@H]2O)[C@](C)(OC)C[C@@H](C)C(=O)[C@H](C)[C@@H](OC(=O)NCCNC(=O)c2ccc(C)cc2)[C@]1(C)O    32
CC[C@H]1OC(=O)[C@H](C)C(=O)[C@H](C)[C@@H](O[C@@H]2O[C@H](C)C[C@H](N(C)C)[C@H]2O)[C@](C)(OC)C[C@@H](C)C(=O)[C@H](C)[C@@H](OC(=O)NCCNC(=O)c2cccc(C)c2)[C@]1(C)O    32

Query (molecule): CC[C@H]1OC(=O)[C@H](C)C(=O)[C@H](C)[C@@H](O[C@@H]2O[C@H](C)C[C@H](N(C)C)[C@H]2O)[C@](C)(OC)C[C@@H](C)C(=O)[C@H](C)[C@@H](OC(=O)NCCNC(=O)c2ccc(OC)cc2)[C@]1(C)O ; field requested: MIC
32

Consider the molecule CC[C@H]1OC(=O)[C@H](C)C(=O)[C@H](C)[C@@H](O[C@@H]2O[C@H](C)C[C@H](N(C)C)[C@H]2O)[C@](C)(OC)C[C@@H](C)C(=O)[C@H](C)[C@@H](OC(=O)NCCNC(=O)c2ccc([N+](=O)[O-])cc2N)[C@]1(C)O and give its measured MIC.
8

Any idea what its MIC is? The molecule is CC[C@H]1OC(=O)[C@H](C)C(=O)[C@H](C)[C@@H](O[C@@H]2O[C@H](C)C[C@H](N(C)C)[C@H]2O)[C@](C)(OC)C[C@@H](C)C(=O)[C@H](C)[C@@H](OC(=O)NCCNC(=O)/C=C/c2ccc(F)cc2)[C@]1(C)O
32
